# TGI listing for each entry below
Tested on: HL-60(TB) leukemia
Assay: NCI tumour cell line growth inhibition, 48 h
Write the answer as a number in µM, unit excluded.

Previously resolved entries follow.
INSERT INTO measurements (compoundstructure, unitabbrev, recordedmeasurement) VALUES
  ('O=S(O)CCCCSSCCCCSSCCCCS(=O)O', 'µM', 30.6),
  ('CC#CC(=O)Nc1ccccc1CC(c1c[nH]c2ccccc12)c1c[nH]c2ccccc12', 'µM', 32.1),
  ('O=C(CCCSc1nc(-c2ccc(Cl)cc2)cc(-c2ccc(Cl)cc2)n1)NO', 'µM', 8);

Please turn your attention to the following entry.
Item under review: Cn1cc(-c2csc(-c3cccc(F)c3)n2)c2cccnc21 . Reported TGI?
49.9
